# tested on: aromatase (Homo sapiens, UniProt P11511)
# Construct: Intact monolayers of JEG3 cells (2.5×10^6 cells) in triplicate 25 cm^2 tissue culture flasks; host or cells: JEG3 choriocarcinoma cells
# Sequence (P11511 whole entry): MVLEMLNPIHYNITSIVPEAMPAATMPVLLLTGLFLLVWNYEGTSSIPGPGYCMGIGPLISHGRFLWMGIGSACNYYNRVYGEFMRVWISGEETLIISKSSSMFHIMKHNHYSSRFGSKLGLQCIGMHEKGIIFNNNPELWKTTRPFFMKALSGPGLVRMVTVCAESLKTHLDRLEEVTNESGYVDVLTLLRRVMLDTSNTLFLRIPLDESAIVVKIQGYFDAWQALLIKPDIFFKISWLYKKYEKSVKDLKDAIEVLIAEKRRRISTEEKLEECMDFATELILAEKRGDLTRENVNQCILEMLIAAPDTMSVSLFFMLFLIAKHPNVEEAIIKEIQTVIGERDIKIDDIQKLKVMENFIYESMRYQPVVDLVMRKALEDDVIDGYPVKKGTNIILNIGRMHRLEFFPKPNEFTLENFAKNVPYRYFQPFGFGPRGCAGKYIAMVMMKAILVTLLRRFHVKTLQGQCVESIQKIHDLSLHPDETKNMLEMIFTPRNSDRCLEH
# assay notes: Aromatase activity in JEG3 choriocarcinoma cells (Protocol 6)
# Format: cell-based
# experimental context: JEG-3; read-out: % AROMATASE INHIBITION (10 μM)
measurement label: inhibition at 10 µM (%)
Field format: number, assumed %, no unit text.

IN: I would be grateful if you could share the reported inhibition at 10 µM for N#CC1(c2cc(CSc3ccc(OS(N)(=O)=O)cc3)cc(Cn3cncn3)c2)CCC1 [STX1731] .
OUT: 99.5

IN: // same read-out, input: `CC(C)(C#N)c1cc(COc2ccc(OS(N)(=O)=O)cc2)cc(Cn2cncn2)c1`
OUT: 99.8

IN: Would you kindly repeat that for CC(C)(C#N)c1cc(CSc2ccc(OS(N)(=O)=O)c(Br)c2)cc(Cn2cncn2)c1 [STX1795] ?
OUT: 100

IN: Likewise for `CC(C)(C#N)c1cc(CSc2ccc(OS(N)(=O)=O)c(Cl)c2)cc(Cn2cncn2)c1` ?
OUT: 99.9

IN: Again, but for N#CC1(c2cc(CSc3ccc(OS(N)(=O)=O)cc3)cc(Cn3cncn3)c2)CC1 [STX1732]
OUT: 99.8

IN: Same question for CC(C)(C#N)c1cc(Cn2cncn2)cc(-c2ccc(OS(N)(=O)=O)cc2)c1 [STX1523] please.
OUT: 99.7

IN: Again, but for COC(=O)c1cc(Cn2cncn2)cc(N(C)S(=O)(=O)c2ccc(OS(N)(=O)=O)cc2)c1 [STX1829]
OUT: 99.5

IN: Then what about the compound N#CC1(c2cc(CSc3ccc(OS(N)(=O)=O)c(Cl)c3)cc(Cn3cncn3)c2)CCC1 [STX1794] ?
OUT: 99.7

Values from patent US7763642B2
